The reported numbers originate from patent US11033539B2.

Target: human M2 receptor (Homo sapiens (Human))
Sequence (P08172 whole entry): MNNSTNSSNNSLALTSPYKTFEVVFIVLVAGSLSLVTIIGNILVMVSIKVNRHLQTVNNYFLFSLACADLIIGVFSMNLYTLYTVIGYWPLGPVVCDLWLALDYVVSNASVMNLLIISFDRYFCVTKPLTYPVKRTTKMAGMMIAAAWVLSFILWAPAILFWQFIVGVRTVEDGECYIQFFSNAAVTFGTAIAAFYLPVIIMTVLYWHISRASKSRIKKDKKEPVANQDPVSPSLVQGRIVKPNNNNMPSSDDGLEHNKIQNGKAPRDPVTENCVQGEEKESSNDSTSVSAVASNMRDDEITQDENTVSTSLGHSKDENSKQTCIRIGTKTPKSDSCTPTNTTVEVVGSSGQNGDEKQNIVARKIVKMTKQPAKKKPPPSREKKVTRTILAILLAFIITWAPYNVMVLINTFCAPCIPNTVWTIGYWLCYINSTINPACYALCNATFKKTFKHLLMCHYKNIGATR
Assay: Radioligand (tritiated N-methylscopolamine) binding assay, M2
Conditions: CHO cell membranes expressing human M2; 1.5 nM tritiated N-methylscopolamine; 90 min, 37° C.; read-out: Ki against M2 receptor (Table 21, M2)
RECORDED METRIC: Ki

Consider the following illustrative entries.
compound=C[C@@H]1CN(c2cc(F)c(C#N)c(F)c2)C[C@H](C)N1C(=O)NCCC1CCN(Cc2ccccc2)CC1 measured="10 to 100 nM"
compound=N#Cc1cc(F)cc(N2CCC(C(=O)NCCC3CCN(Cc4ccccc4)CC3)CC2)c1 measured="100 to 1000 nM"
compound="O=C(NCCC1CCN(Cc2ccccc2)CC1)c1ccc(-c2ccc(OC(F)(F)F)cc2)cc1 [9-7]" measured="100 to 1000 nM"

Query compound follows.
Record C[C@@H]1CN(c2ncc(C#N)cn2)C[C@H](C)N1C(=O)NCCC1CCN(CC[Si](C)(C)C)CC1 . Reported Ki: < 10 nM
